- Tested on: Escherichia coli TOP10
- protocol: shrunken log2 fold change of peptide-encoding DNA abundance (4.5 h post-induction vs induction); higher = less antimicrobial activity (less host growth inhibition)
- measurement setup: time post-induction: 4.5 h; library: site-saturation at positions 5, 18, 19, 20
Short version: shrunken log2 fold change at least 0.03 is satisfied, less is not satisfied.

INPUT: Could you verify whether the entry `RRIRFRPPRLPRPRPRPYQTPRP` shows shrunken log2 fold change of no less than 0.03?
OUTPUT: not satisfied

INPUT: Could you verify whether the entry `RRIRERPPRLPRPRPRPKQGPRP` shows shrunken log2 fold change of no less than 0.03?
OUTPUT: not satisfied

INPUT: Could you verify whether the entry `RRIRWRPPRLPRPRPRPTPHPRP` shows shrunken log2 fold change of no less than 0.03?
OUTPUT: satisfied

INPUT: Could you verify whether the entry `RRIRCRPPRLPRPRPRPWHFPRP` shows shrunken log2 fold change of no less than 0.03?
OUTPUT: not satisfied

INPUT: Could you verify whether the entry `RRIRVRPPRLPRPRPRPPYRPRP` shows shrunken log2 fold change of no less than 0.03?
OUTPUT: not satisfied

INPUT: Could you verify whether the entry `RRIRCRPPRLPRPRPRPCYAPRP` shows shrunken log2 fold change of no less than 0.03?
OUTPUT: not satisfied

INPUT: Could you verify whether the entry `RRIRIRPPRLPRPRPRPGRGPRP` shows shrunken log2 fold change of no less than 0.03?
OUTPUT: satisfied

###

Please go through the items and note down their shrunken log2 fold change.
- Test system: Escherichia coli TOP10
- protocol: shrunken log2 fold change of peptide-encoding DNA abundance (4.5 h post-induction vs induction); higher = less antimicrobial activity (less host growth inhibition)
- measurement setup: time post-induction: 4.5 h; library: site-saturation at positions 5, 18, 19, 20
Give bare numbers.

Below: 2 sequences and their reported shrunken log2 fold change.
INPUT: Write down shrunken log2 fold change measured for item `RRIRRRPPRLPRPRPRPDGFPRP`
OUTPUT: 0.14

INPUT: Write down shrunken log2 fold change measured for item `RRIRMRPPRLPRPRPRPNHRPRP`
OUTPUT: -0.113

Would you kindly look at the next entry?
INPUT: Write down shrunken log2 fold change measured for item `RRIRQRPPRLPRPRPRPMRTPRP`
OUTPUT: 0.661

###

Please go through the items and note down their shrunken log2 fold change.
- System: Escherichia coli TOP10
- protocol: shrunken log2 fold change of peptide-encoding DNA abundance (4.5 h post-induction vs induction); higher = less antimicrobial activity (less host growth inhibition)
- measurement setup: time post-induction: 4.5 h; library: site-saturation at positions 5, 18, 19, 20
Answers are plain numbers.

Below: 10 sequences and their reported shrunken log2 fold change.
INPUT: Write down shrunken log2 fold change measured for item `RRIRNRPPRLPRPRPRPPQLPRP`
OUTPUT: 0.131

INPUT: Write down shrunken log2 fold change measured for item `RRIRFRPPRLPRPRPRPLMFPRP`
OUTPUT: -0.695

INPUT: Write down shrunken log2 fold change measured for item `RRIRNRPPRLPRPRPRPNCYPRP`
OUTPUT: -0.618

INPUT: Write down shrunken log2 fold change measured for item `RRIRYRPPRLPRPRPRPQTKPRP`
OUTPUT: -0.168

INPUT: Write down shrunken log2 fold change measured for item `RRIRGRPPRLPRPRPRPNPVPRP`
OUTPUT: 0.145

INPUT: Write down shrunken log2 fold change measured for item `RRIRFRPPRLPRPRPRPQHLPRP`
OUTPUT: -1.22

INPUT: Write down shrunken log2 fold change measured for item `RRIRRRPPRLPRPRPRPGAWPRP`
OUTPUT: -9.3e-05

INPUT: Write down shrunken log2 fold change measured for item `RRIRGRPPRLPRPRPRPWHKPRP`
OUTPUT: -0.299

INPUT: Write down shrunken log2 fold change measured for item `RRIRNRPPRLPRPRPRPYSAPRP`
OUTPUT: -1.37

INPUT: Write down shrunken log2 fold change measured for item `RRIRTRPPRLPRPRPRPSFKPRP`
OUTPUT: -0.465

I would be grateful if you could provide shrunken log2 fold change for each of the following entries.
1. RRIRWRPPRLPRPRPRPLHSPRP
2. RRIRSRPPRLPRPRPRPFPKPRP

OUTPUT:
1: 0.215; 2: 0.107

###

Please go through the items and note down their shrunken log2 fold change.
- Test system: Escherichia coli TOP10
- protocol: shrunken log2 fold change of peptide-encoding DNA abundance (4.5 h post-induction vs induction); higher = less antimicrobial activity (less host growth inhibition)
- measurement setup: time post-induction: 4.5 h; library: site-saturation at positions 5, 18, 19, 20
Answers are plain numbers.

Below: 2 sequences and their reported shrunken log2 fold change.
INPUT: Write down shrunken log2 fold change measured for item `RRIRNRPPRLPRPRPRPMIWPRP`
OUTPUT: -0.166

INPUT: Write down shrunken log2 fold change measured for item `RRIRVRPPRLPRPRPRPDVWPRP`
OUTPUT: -0.0858

I would be grateful if you could provide shrunken log2 fold change for each of the following entries.
1. RRIRYRPPRLPRPRPRPSYQPRP
2. RRIRARPPRLPRPRPRPMQAPRP
3. RRIRRRPPRLPRPRPRPLNWPRP
4. RRIRVRPPRLPRPRPRPFMSPRP
5. RRIRCRPPRLPRPRPRPTWDPRP
6. RRIRERPPRLPRPRPRPSKCPRP
7. RRIRGRPPRLPRPRPRPMFLPRP

OUTPUT:
1. -1.27
2. -0.00917
3. 0.296
4. 0.0334
5. 0.151
6. -0.488
7. -0.0125

I would be grateful if you could provide shrunken log2 fold change for each of the following entries.
1. RRIRWRPPRLPRPRPRPVNMPRP
2. RRIRQRPPRLPRPRPRPFRRPRP
3. RRIRARPPRLPRPRPRPQDKPRP

OUTPUT:
-0.101
0.0238
-0.132

I would be grateful if you could provide shrunken log2 fold change for each of the following entries.
1. RRIRPRPPRLPRPRPRPYSKPRP
2. RRIRQRPPRLPRPRPRPYTQPRP
3. RRIRDRPPRLPRPRPRPPCGPRP

OUTPUT:
-0.868
-0.25
0.411

###

- Test system: Escherichia coli TOP10
- protocol: shrunken log2 fold change of peptide-encoding DNA abundance (4.5 h post-induction vs induction); higher = less antimicrobial activity (less host growth inhibition)
- measurement setup: time post-induction: 4.5 h; library: site-saturation at positions 5, 18, 19, 20
Please go through the items and note down their shrunken log2 fold change.
Answers are plain numbers.

Below: 2 sequences and their reported shrunken log2 fold change.
INPUT: Give Escherichia coli TOP10 shrunken log2 fold change for the following sequence: `RRIRNRPPRLPRPRPRPFRKPRP`
OUTPUT: -0.0467

INPUT: Give Escherichia coli TOP10 shrunken log2 fold change for the following sequence: `RRIRRRPPRLPRPRPRPHPNPRP`
OUTPUT: 0.246

Would you kindly look at the next entry?
INPUT: Give Escherichia coli TOP10 shrunken log2 fold change for the following sequence: `RRIRVRPPRLPRPRPRPSAYPRP`
OUTPUT: -0.34

###

- System: Escherichia coli TOP10
- protocol: shrunken log2 fold change of peptide-encoding DNA abundance (4.5 h post-induction vs induction); higher = less antimicrobial activity (less host growth inhibition)
- measurement setup: time post-induction: 4.5 h; library: site-saturation at positions 5, 18, 19, 20
Short version: shrunken log2 fold change at least 0.05 is Yes, less is No.

INPUT: Could you verify whether the entry `RRIRYRPPRLPRPRPRPVPSPRP` shows shrunken log2 fold change of no less than 0.05?
OUTPUT: No

INPUT: Could you verify whether the entry `RRIRPRPPRLPRPRPRPYKRPRP` shows shrunken log2 fold change of no less than 0.05?
OUTPUT: No

INPUT: Could you verify whether the entry `RRIRGRPPRLPRPRPRPMHLPRP` shows shrunken log2 fold change of no less than 0.05?
OUTPUT: Yes

Next:
INPUT: Could you verify whether the entry `RRIRDRPPRLPRPRPRPLTAPRP` shows shrunken log2 fold change of no less than 0.05?
OUTPUT: Yes

INPUT: Could you verify whether the entry `RRIRSRPPRLPRPRPRPVTCPRP` shows shrunken log2 fold change of no less than 0.05?
OUTPUT: No

INPUT: Could you verify whether the entry `RRIRRRPPRLPRPRPRPDNRPRP` shows shrunken log2 fold change of no less than 0.05?
OUTPUT: No

###

- Tested on: Escherichia coli TOP10;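 note: peptides expressed intracellularly from a pBAD plasmid library in pooled LB shake-flask culture, induced with 0.3% L-arabinose, DNA abundance read by NGS, three biological replicates, DESeq2 with apeglm shrinkage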
- protocol: shrunken log2 fold change of peptide-encoding DNA abundance (4.5 h post-induction vs induction); higher = less antimicrobial activity (less host growth inhibition)
- measurement setup: time post-induction: 4.5 h; library: site-saturation at positions 5, 18, 19, 20
Please go through the items and note down their shrunken log2 fold change.
One number for each entry.

Below: 3 sequences and their reported shrunken log2 fold change.
INPUT: Write down shrunken log2 fold change measured for item `RRIRCRPPRLPRPRPRPWDYPRP`
OUTPUT: 0.00188

INPUT: Write down shrunken log2 fold change measured for item `RRIRCRPPRLPRPRPRPYETPRP`
OUTPUT: 0.023

INPUT: Write down shrunken log2 fold change measured for item `RRIRPRPPRLPRPRPRPNYCPRP`
OUTPUT: -0.239

I would be grateful if you could provide shrunken log2 fold change for each of the following entries.
1. RRIRRRPPRLPRPRPRPVYEPRP
2. RRIRYRPPRLPRPRPRPQDLPRP
3. RRIRKRPPRLPRPRPRPNDFPRP
4. RRIRMRPPRLPRPRPRPCVTPRP
5. RRIRDRPPRLPRPRPRPAAPPRP
6. RRIRRRPPRLPRPRPRPCDQPRP
7. RRIRIRPPRLPRPRPRPERHPRP

OUTPUT:
1. 0.15
2. 0.0284
3. -0.0772
4. 0.0301
5. 0.545
6. 0.0305
7. 0.0733
